- SYSTEM NAME: T1, his-tagged murine TIGIT (Acro Biosystems #TIT-M52E6) (murine, UniProt P86176 29-148, limits assumed)
- T1 construct: Bought protein; also called mouse his-tagged TIGIT; not shown: his tag
- T1 sequence (looked up): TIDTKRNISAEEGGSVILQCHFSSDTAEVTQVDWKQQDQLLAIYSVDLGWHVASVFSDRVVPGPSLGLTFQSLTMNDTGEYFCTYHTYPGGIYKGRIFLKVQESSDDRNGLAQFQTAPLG
- EXPERIMENTAL PROTOCOL: ELISA, coated His-TIGIT, 1 ug/ml
In this section we review reported Elisa OD450 values for a set of binders.
Write the value in OD450 as a bare number.

[
  {
    "BINDER": "43586p2.F11 (scFv, V domains shown) VH: EVQLLELGGSLVQPGGSLRLSCAASGFTFDDYVMSWVRQAPGKGLEWVSLINWNGDKTYYADSVKGRFTISRDNSKNTLYLQMNSLRAEDTAVYYCARHWIVFQYGLDVWGQGTTVTVSS VL: QSVLTQPLSASGTPGQKVTISCSGVSSNIEIKYVSWYQQLPGTAPKLLIYNSHQRPSGVPDRFSGSKSGTSASLAISGLQSEDEADYYCTSWDDRLKSWVFGGGTKLTVL",
    "Elisa OD450 (OD450)": 1.93
  },
  {
    "BINDER": "43586p1.1.G9 (scFv, V domains shown) VH: EVQLLESGGGLVQPGGSLRLSCAASGFTFTTYAMSWVRQAPGKGLEWVAGISYIGSDKYYADSVKGRLTISRDNSKNTLYLQMDSLRAEDTAVYYCAKHLTGGTTDYYYYGMDVWGQGTTVTVS VL: QSVLTQPPSASGTPGQRVTISCSGSTSNIGTSRYVHWYQHLPGTAPKLLIYLDSQRPSGVPDRFSASKSGTSASLAISGLQSEDEADYYCSAWDDSLSAWVFGGGTKLTVL",
    "Elisa OD450 (OD450)": 0.046
  },
  {
    "BINDER": "43645p1.F7 (scFv, V domains shown) VH: EVQLLESGGGLVQPGGSLRLSCAASGFTFSDFWMSWVRQAPGKGLEWVSSIINIQTYDYATYYADSVKGRFTISRDNSKNTLYLQMNSLRAEDTAIYYCAKDVAPGLPGGMDVWGQGTTVTVSS VL: QSVLTQPPSASGTPGQRVTISCSGSNSNIRNNFVSWYQHLPGTAPKLLIYGNSQRPSGVPDRFSGSKSGTSASLAISGLQSEDEADYYCTSWDFSVNGWVFGGGTKLTVL",
    "Elisa OD450 (OD450)": 0.489
  }
]

Prompt line: Requested field: Elisa OD450. Item: 43586p1.1.C2 (scFv, V domains shown) VH: EVQLLESGGGLVQPGGSLRLSCAASGFTFSDYYMNWVRQAPGKGLEWVSSINWNGGTTYYADSVKGRFTISRDNSRNTLYLQMNSLRAEDTAVYYCAKDQNWNFYYGMDVWGQGTTVTVSS VL: QSVLTQPPSASGTPGQRVTISCSGGSSNIGTNYVSWYQQLPGTAPKLLLYKEDQRPSGVPDRFSGSKSGTSASLAISGLQSEDEADYYCATWDGSLRSWVFGGGTKLTVL
Response line: 0.046

Prompt line: Data request, read-out Elisa OD450, for 43586p1.2.C11 (scFv, V domains shown) VH: EVQLLESGGGLVQPGGSLRLSCAASGFTFDDYVMSWVRQAPGKGLEWVSLINWNGDKTYCADSVKGRFTISRDNSKNTLYLQMNSLRAEDTAIYYCAKHWIVFQYGMDVWGQGTTVTVSS VL: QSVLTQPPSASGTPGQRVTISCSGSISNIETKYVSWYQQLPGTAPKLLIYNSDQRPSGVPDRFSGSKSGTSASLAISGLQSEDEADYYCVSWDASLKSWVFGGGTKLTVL
Response line: 2.01

Prompt line: So what does the record say about Elisa OD450 for 43586p1.2.G10 (scFv, V domains shown) VH: EVQLLESGGGLVQPGGSLRLSCAASGFTFDDYVMSWVRQAPGKELEWVSLINWNGDKTCYADSVKGRFTISRDNSKNTLYLQMNSLRAEDTAIYYCAKHWIVFQYGMDVWGQGTTVTVSS VL: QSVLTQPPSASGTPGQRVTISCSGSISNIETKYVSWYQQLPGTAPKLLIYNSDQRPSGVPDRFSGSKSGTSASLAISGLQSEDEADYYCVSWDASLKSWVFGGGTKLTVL ?
Response line: 2.1

Prompt line: Using the record for 43352p1.H8 (scFv, V domains shown) VH: DVQLVESGGGVVRPGESLRLSCAASGFNFSTYAMNWVRQAPGEGLEWVSGISGRSSGDTTYYADSVRGWFTVSRDNSKNTLYLQMSSLRAEDTAVYYCARETWIRGYFDYWGLGTLVTVSS VL: QSVLTQPPSASGTPGQRVTISCSGSRSNLGNNLVYWYQQLPGTAPKLLIYFNNERPSGVPDRFSGSKSGTSASLAISGVQSEDEADYYCATWDDSLNGWVFGGGTKLTVL , report its Elisa OD450.
Response line: 1.85

Prompt line: Item under review: 43586p1.2.E2 (scFv, V domains shown) VH: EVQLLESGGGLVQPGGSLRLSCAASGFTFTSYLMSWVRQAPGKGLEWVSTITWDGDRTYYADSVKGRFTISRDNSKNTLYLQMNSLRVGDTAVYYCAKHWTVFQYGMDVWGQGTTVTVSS VL: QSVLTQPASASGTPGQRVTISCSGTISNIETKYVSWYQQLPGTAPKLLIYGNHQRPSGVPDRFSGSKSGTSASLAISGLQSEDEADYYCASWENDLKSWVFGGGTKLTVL . Reported Elisa OD450?
Response line: 1.78

Prompt line: Elisa OD450 for 43586p2.F02 (scFv, V domains shown) VH: EVQLLESGGGLVQPGGSLRLSCAASGFTFDDYVMSWVRQAPGKGLEWVSLINWNGDKTYYADSVKGRFTISRDNSKNTLYLQMNSLRAEDTAVYYCARHWIVLQYGLDVWGQGTTVTVSS VL: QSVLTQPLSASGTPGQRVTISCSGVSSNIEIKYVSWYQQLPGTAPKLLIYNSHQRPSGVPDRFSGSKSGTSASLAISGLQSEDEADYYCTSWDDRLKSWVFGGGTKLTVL ?
Response line: 1.9

Prompt line: Name the reported Elisa OD450 value associated with the binder 43645p1.B8 (scFv, V domains shown) VH: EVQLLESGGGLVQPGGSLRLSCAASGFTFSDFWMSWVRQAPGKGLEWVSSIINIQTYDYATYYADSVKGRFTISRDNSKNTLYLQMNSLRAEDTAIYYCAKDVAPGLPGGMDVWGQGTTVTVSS VL: QSVLTQPPSASGTPGQRVTISCSGSNSNIRNNFVSWYQHLPGMAPKLLIYGNSQRPSGVPDRFSGSKSGTSASLAISGLQSEDEADYYCTSWDFSVNGWVFGGGTKLTVL
Response line: 0.052
